Target: T1, Avi-Tag Fc with human IL-2R beta and IL-2R gamma attached (Acrobiosystems ACRB-ILG-H82F3-25UG) (human, UniProt P14784 27-239; P31785 23-262)
T1 construct: bought heterodimer; also called CD122 CD132; CD122/CD132 complex
T1 sequence (looked up) 1: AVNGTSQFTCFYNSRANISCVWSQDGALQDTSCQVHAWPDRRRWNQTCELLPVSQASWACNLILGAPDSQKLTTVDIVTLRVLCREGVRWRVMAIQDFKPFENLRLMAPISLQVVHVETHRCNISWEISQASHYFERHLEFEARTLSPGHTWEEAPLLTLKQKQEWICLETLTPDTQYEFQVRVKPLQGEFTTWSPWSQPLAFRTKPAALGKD
T1 sequence (looked up) 2: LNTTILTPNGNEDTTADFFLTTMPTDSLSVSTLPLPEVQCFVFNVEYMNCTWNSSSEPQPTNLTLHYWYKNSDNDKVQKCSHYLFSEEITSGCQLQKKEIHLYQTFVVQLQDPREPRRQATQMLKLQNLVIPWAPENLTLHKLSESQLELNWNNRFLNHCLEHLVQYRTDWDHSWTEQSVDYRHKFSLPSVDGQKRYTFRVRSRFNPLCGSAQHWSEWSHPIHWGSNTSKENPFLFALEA
Assay: BLI (Octet), receptor on SAX2 sensor, IL-2 as analyte
*1 amine or outer side, *2 acyl side, *3 side chain or, on linkers, in order; H or OH if unused. Bridges are numbered along the chain shown (N, C = ends). Primed or numbered codes have the meaning given here. [ ]: non-standard residue; d: D form. cleavable peptide RGRRVANLVG = CC(C)C[C@H](NC(=O)[C@H](CC(N)=O)NC(=O)[C@H](C)NC(=O)[C@@H](NC(=O)[C@H](CCCNC(=N)N)NC(=O)[C@H](CCCNC(=N)N)NC(=O)CNC(=O)[C@H](CCCNC(=N)N)N[*:1])C(C)C)C(=O)N[C@H](C(=O)NCC(=O)[*:2])C(C)C; Ygp = O-(8x polyethylene glycol-amino)-tyrosine; Yn3 = O-(9x polyethylene glycol-azido)-tyrosine; Ygp(3) = O-(PEG8-amino)-tyrosine; Yn3(3) = O-(PEG9-azido)-tyrosine; hSer = N[C@@H](CCO)C(=O)O; Nle = CCCC[C@H](N)C(=O)O

- BINDER: "CMP-138 (ligand, disulfide 58-105; bridge N-29; not fully specified (residue 29, bridges)) APTSSSTKKTQLQLEHLLLDLQ[Nle]ILNGIENYKNPKLTR[Nle]L[hSer][Yn3]KF[Ygp][Nle]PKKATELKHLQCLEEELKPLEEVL[hSer]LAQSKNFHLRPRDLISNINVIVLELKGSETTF[hSer]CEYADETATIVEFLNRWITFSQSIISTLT"
  koff, s⁻¹: 0.00284
- BINDER: "CMP-328 (ligand, disulfide 58-105; linker 9-23 via cleavable peptide RGRRVANLVG; also: macrocycle: cleavable peptide bridging Lys9 and Glu23 side chains (structure drawing only)) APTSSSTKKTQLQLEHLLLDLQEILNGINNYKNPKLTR[Nle]L[hSer][Yn3(3)]KF[Ygp(3)][Nle]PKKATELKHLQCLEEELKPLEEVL[hSer]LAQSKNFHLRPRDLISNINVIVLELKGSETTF[hSer]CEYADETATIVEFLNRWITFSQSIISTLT"
  koff, s⁻¹: 0.00194
